Assay: activity coefficient (dimensionless); of the first substance listed, at infinite dilution; xn = mol fraction of the nth substance listed
Details: 323.15 K; 101 kPa; Liquid; Chromatography; x1 = 0
// FALSE strictly below 2 in activity coefficient; TRUE otherwise

State whether the measured activity coefficient reaches 2, counting equality as reaching it, for C=Cc1ccccc1 [styrene] + CCCCCCCCCCn1cc[n+](C)c1.F[B-](F)(F)F
FALSE

Please give the result for CCCCCCC [heptane] + CCCCCCCCCCn1cc[n+](C)c1.F[B-](F)(F)F too.
TRUE

Please give the result for Cc1ccccc1C [1,2-dimethylbenzene] + CCCCCCCCCCn1cc[n+](C)c1.F[B-](F)(F)F too.
FALSE

Please give the result for C1CCCCC1 [cyclohexane] + CCCCCCCCCCn1cc[n+](C)c1.F[B-](F)(F)F too.
TRUE

Please give the result for CCCCCC [hexane] + CCCCCCCCCCn1cc[n+](C)c1.F[B-](F)(F)F too.
TRUE

Please give the result for c1ccccc1 [benzene] + CCCCCCCCCCn1cc[n+](C)c1.F[B-](F)(F)F too.
FALSE

Please give the result for CC1CCCCC1 [methylcyclohexane] + CCCCCCCCCCn1cc[n+](C)c1.F[B-](F)(F)F too.
TRUE

Please give the result for C1=CCCCC1 [cyclohexene] + CCCCCCCCCCn1cc[n+](C)c1.F[B-](F)(F)F too.
TRUE

Please give the result for Cc1ccccc1 [toluene] + CCCCCCCCCCn1cc[n+](C)c1.F[B-](F)(F)F too.
FALSE

Please give the result for CCCCC [pentane] + CCCCCCCCCCn1cc[n+](C)c1.F[B-](F)(F)F too.
TRUE

Please give the result for Cc1ccc(C)cc1 [1,4-dimethylbenzene] + CCCCCCCCCCn1cc[n+](C)c1.F[B-](F)(F)F too.
FALSE

Please give the result for CC(C)CC(C)(C)C [2,2,4-trimethylpentane] + CCCCCCCCCCn1cc[n+](C)c1.F[B-](F)(F)F too.
TRUE

Please give the result for CCCCCCCCC [nonane] + CCCCCCCCCCn1cc[n+](C)c1.F[B-](F)(F)F too.
TRUE

Please give the result for CCCCCCCC [octane] + CCCCCCCCCCn1cc[n+](C)c1.F[B-](F)(F)F too.
TRUE

* * *

Kindly supply the reported activity coefficient values for the records listed here.
Test: activity coefficient (dimensionless); of the first substance listed, at infinite dilution; xn = mol fraction of the nth substance listed
Settings: 313.15 K; 101 kPa; Liquid; Chromatography; x1 = 0
The reply should be a number, written without any unit.

// returns reported activity coefficient for input CC1CCCCC1 [methylcyclohexane] + CCCCCCCCCCn1cc[n+](C)c1.F[B-](F)(F)F
5.23

Please give the result for C=Cc1ccccc1 [styrene] + CCCCCCCCCCn1cc[n+](C)c1.F[B-](F)(F)F too.
1.25

Please give the result for Cc1cccc(C)c1 [1,3-dimethylbenzene] + CCCCCCCCCCn1cc[n+](C)c1.F[B-](F)(F)F too.
2.02

Please give the result for CCCCCC [hexane] + CCCCCCCCCCn1cc[n+](C)c1.F[B-](F)(F)F too.
7.16

Please give the result for CC(C)CC(C)(C)C [2,2,4-trimethylpentane] + CCCCCCCCCCn1cc[n+](C)c1.F[B-](F)(F)F too.
9.11

Please give the result for CCCCCCCCC [nonane] + CCCCCCCCCCn1cc[n+](C)c1.F[B-](F)(F)F too.
10.7

Please give the result for c1ccccc1 [benzene] + CCCCCCCCCCn1cc[n+](C)c1.F[B-](F)(F)F too.
1.14

Please give the result for C1=CCCCC1 [cyclohexene] + CCCCCCCCCCn1cc[n+](C)c1.F[B-](F)(F)F too.
3.01

* * *

Kindly supply the reported activity coefficient values for the records listed here.
Assay: activity coefficient (dimensionless); of the first substance listed, at infinite dilution; xn = mol fraction of the nth substance listed
Conditions: 353.15 K; 101 kPa; Liquid; Chromatography; x1 = 0
The reply should be a number, written without any unit.

// returns reported activity coefficient for input Cc1ccccc1C [1,2-dimethylbenzene] + CCCCCCCCCCn1cc[n+](C)c1.F[B-](F)(F)F
1.72

Please give the result for CCCCCC [hexane] + CCCCCCCCCCn1cc[n+](C)c1.F[B-](F)(F)F too.
6.81

Please give the result for Cc1cccc(C)c1 [1,3-dimethylbenzene] + CCCCCCCCCCn1cc[n+](C)c1.F[B-](F)(F)F too.
1.92

Please give the result for CCCCCCCCC [nonane] + CCCCCCCCCCn1cc[n+](C)c1.F[B-](F)(F)F too.
10.7

* * *

Experiment: activity coefficient (dimensionless); of the first substance listed, at infinite dilution; xn = mol fraction of the nth substance listed
Conditions: 313.15 K; 101 kPa; Liquid; Chromatography; x1 = 0
// false (0) strictly below 7 in activity coefficient; true (1) otherwise

State whether the measured activity coefficient reaches 7, counting equality as reaching it, for CCCCCCCC [octane] + CCCCCCCCCCn1cc[n+](C)c1.F[B-](F)(F)F
true (1)

Please give the result for CCc1ccccc1 [ethylbenzene] + CCCCCCCCCCn1cc[n+](C)c1.F[B-](F)(F)F too.
false (0)

Please give the result for CCCCC [pentane] + CCCCCCCCCCn1cc[n+](C)c1.F[B-](F)(F)F too.
false (0)

Please give the result for Cc1ccccc1 [toluene] + CCCCCCCCCCn1cc[n+](C)c1.F[B-](F)(F)F too.
false (0)

Please give the result for CCCCCCC [heptane] + CCCCCCCCCCn1cc[n+](C)c1.F[B-](F)(F)F too.
true (1)

Please give the result for Cc1ccccc1C [1,2-dimethylbenzene] + CCCCCCCCCCn1cc[n+](C)c1.F[B-](F)(F)F too.
false (0)

Please give the result for Cc1ccc(C)cc1 [1,4-dimethylbenzene] + CCCCCCCCCCn1cc[n+](C)c1.F[B-](F)(F)F too.
false (0)

Please give the result for C1CCCCC1 [cyclohexane] + CCCCCCCCCCn1cc[n+](C)c1.F[B-](F)(F)F too.
false (0)

* * *

Assay: activity coefficient (dimensionless); of the first substance listed, at infinite dilution; xn = mol fraction of the nth substance listed
Settings: 303.15 K; 101 kPa; Liquid; Chromatography; x1 = 0
Note to self: use criterion met only for activity coefficient readings below 7; a reading exactly at 7 still gets criterion not met.

Record C1CCCCC1 [cyclohexane] + CCCCCCCCCCn1cc[n+](C)c1.F[B-](F)(F)F : is its activity coefficient strictly below 7?
criterion met

Please give the result for Cc1cccc(C)c1 [1,3-dimethylbenzene] + CCCCCCCCCCn1cc[n+](C)c1.F[B-](F)(F)F too.
criterion met

Please give the result for CCCCCCCCC [nonane] + CCCCCCCCCCn1cc[n+](C)c1.F[B-](F)(F)F too.
criterion not met

Please give the result for C1=CCCCC1 [cyclohexene] + CCCCCCCCCCn1cc[n+](C)c1.F[B-](F)(F)F too.
criterion met

Please give the result for Cc1ccc(C)cc1 [1,4-dimethylbenzene] + CCCCCCCCCCn1cc[n+](C)c1.F[B-](F)(F)F too.
criterion met

Please give the result for CC(C)CC(C)(C)C [2,2,4-trimethylpentane] + CCCCCCCCCCn1cc[n+](C)c1.F[B-](F)(F)F too.
criterion not met

Please give the result for CC1CCCCC1 [methylcyclohexane] + CCCCCCCCCCn1cc[n+](C)c1.F[B-](F)(F)F too.
criterion met

Please give the result for Cc1ccccc1 [toluene] + CCCCCCCCCCn1cc[n+](C)c1.F[B-](F)(F)F too.
criterion met

Please give the result for CCCCCCC [heptane] + CCCCCCCCCCn1cc[n+](C)c1.F[B-](F)(F)F too.
criterion not met

Please give the result for CCCCCC [hexane] + CCCCCCCCCCn1cc[n+](C)c1.F[B-](F)(F)F too.
criterion not met

Please give the result for Cc1ccccc1C [1,2-dimethylbenzene] + CCCCCCCCCCn1cc[n+](C)c1.F[B-](F)(F)F too.
criterion met

Please give the result for CCCCCCCC [octane] + CCCCCCCCCCn1cc[n+](C)c1.F[B-](F)(F)F too.
criterion not met

Please give the result for c1ccccc1 [benzene] + CCCCCCCCCCn1cc[n+](C)c1.F[B-](F)(F)F too.
criterion met

* * *

Assay: activity coefficient (dimensionless); of the first substance listed, at infinite dilution; xn = mol fraction of the nth substance listed
Conditions: 333.15 K; 101 kPa; Liquid; Chromatography; x1 = 0
// Not satisfied strictly below 2 in activity coefficient; Satisfied otherwise

State whether the measured activity coefficient reaches 2, counting equality as reaching it, for CCCCC [pentane] + CCCCCCCCCCn1cc[n+](C)c1.F[B-](F)(F)F
Satisfied

Please give the result for C=Cc1ccccc1 [styrene] + CCCCCCCCCCn1cc[n+](C)c1.F[B-](F)(F)F too.
Not satisfied

Please give the result for C1CCCCC1 [cyclohexane] + CCCCCCCCCCn1cc[n+](C)c1.F[B-](F)(F)F too.
Satisfied

Please give the result for Cc1ccccc1C [1,2-dimethylbenzene] + CCCCCCCCCCn1cc[n+](C)c1.F[B-](F)(F)F too.
Not satisfied

Please give the result for CC1CCCCC1 [methylcyclohexane] + CCCCCCCCCCn1cc[n+](C)c1.F[B-](F)(F)F too.
Satisfied

Please give the result for CCCCCCCCC [nonane] + CCCCCCCCCCn1cc[n+](C)c1.F[B-](F)(F)F too.
Satisfied

Please give the result for c1ccccc1 [benzene] + CCCCCCCCCCn1cc[n+](C)c1.F[B-](F)(F)F too.
Not satisfied

Please give the result for C1=CCCCC1 [cyclohexene] + CCCCCCCCCCn1cc[n+](C)c1.F[B-](F)(F)F too.
Satisfied

Please give the result for CCCCCC [hexane] + CCCCCCCCCCn1cc[n+](C)c1.F[B-](F)(F)F too.
Satisfied

Please give the result for CCCCCCC [heptane] + CCCCCCCCCCn1cc[n+](C)c1.F[B-](F)(F)F too.
Satisfied

Please give the result for CCCCCCCC [octane] + CCCCCCCCCCn1cc[n+](C)c1.F[B-](F)(F)F too.
Satisfied

Please give the result for CC(C)CC(C)(C)C [2,2,4-trimethylpentane] + CCCCCCCCCCn1cc[n+](C)c1.F[B-](F)(F)F too.
Satisfied

Please give the result for Cc1ccccc1 [toluene] + CCCCCCCCCCn1cc[n+](C)c1.F[B-](F)(F)F too.
Not satisfied

Please give the result for Cc1ccc(C)cc1 [1,4-dimethylbenzene] + CCCCCCCCCCn1cc[n+](C)c1.F[B-](F)(F)F too.
Not satisfied
